- ASSAY_TARGET: His6 tagged human recombinant FABP4 (Homo sapiens)
- Construct: purchased Cayman Chemicals 10009549
- MEASUREMENT_DESCRIPTION: FABP4 TR-FRET assay: displacement of BODIPY FL C12 fatty acid
- SETUP_CONDITIONS: 1 μM compound, triplicates, inhibition of BODIPY FL C12 binding
Label rule, in plain words: inhibition at 1 µM of 90% and up is 1.0, under 90% is 0.0.

These solved cases illustrate the format of a correct answer.
| COMPOUND | CAT |
| --- | --- |
| CCCCC1CCCc2c(n(Cc3cccc(Cl)c3)c3c(C(=O)O)cccc23)C1 (stereo not shown) | 0.0 |
| CCCCCC1CCc2c(n(Cc3cccc(C(N)=O)c3)c3c(C(=O)O)cccc23)C1 (stereo not shown) | 0.0 |
| CCCCCC1CCc2c(c3cccc(C(=O)O)c3n2Cc2cccc(C#N)c2)C1 (stereo not shown) | 0.0 |
| CCCCC1CCc2c(c3cccc(C(=O)O)c3n2Cc2cccc(C#N)c2)C1 (stereo not shown) | 0.0 |
| CCCCC1CCCCc2c1c1cccc(C(=O)O)c1n2Cc1cccc(C#N)c1 (stereo not shown) | 0.0 |

Query string: For this compound, is measured inhibition at 1 µM 90% or higher? CCCCCCC1CCCc2c(n(Cc3cccc(C(N)=O)c3)c3c(C(=O)O)cccc23)C1 (stereo not shown)
Result string: 1.0

Query string: For this compound, is measured inhibition at 1 µM 90% or higher? CCCCCC1CCCc2c(n(Cc3cccc(C#N)c3)c3c(C(=O)O)cccc23)C1 (stereo not shown)
Result string: 1.0

Query string: For this compound, is measured inhibition at 1 µM 90% or higher? CCCCCCC1CCCc2c(n(Cc3ccccc3C)c3c(C(=O)O)cccc23)C1 (stereo not shown)
Result string: 1.0

----------
Recorded inhibition at 1 µM values for a group of compounds are listed next.
- ASSAY_TARGET: His6 tagged human recombinant FABP4 (Homo sapiens, UniProt P15090)
- Construct: purchased Cayman Chemicals 10009549
- Sequence (P15090 whole entry): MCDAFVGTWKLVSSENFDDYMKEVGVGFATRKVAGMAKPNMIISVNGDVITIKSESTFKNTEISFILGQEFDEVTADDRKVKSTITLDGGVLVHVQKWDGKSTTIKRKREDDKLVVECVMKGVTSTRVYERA
- MEASUREMENT_DESCRIPTION: FABP4 TR-FRET assay: displacement of BODIPY FL C12 fatty acid
- SETUP_CONDITIONS: 1 μM compound, triplicates, inhibition of BODIPY FL C12 binding
Value expressed in %; do not type the unit.

Check out these entries, answers already filled in.
| COMPOUND | inhibition at 1 µM / % |
| --- | --- |
| CCC1CCCc2c1n(Cc1cccc(C(N)=O)c1)c1c(C(=O)O)cccc21 (stereo not shown) | 90.3 |
| N#Cc1cccc(Cn2c3c(c4cccc(C(=O)O)c42)C(CCc2ccccc2)CCC3)c1 (stereo not shown) | 31 |

What the record says about CCCCCCCCC1CCCc2c(n(Cc3cccc(C#N)c3)c3c(C(=O)O)cccc23)C1 (stereo not shown) : inhibition at 1 µM is 94.5

What the record says about NC(=O)c1cccc(Cn2c3c(c4cccc(C(=O)O)c42)CCCC(CCc2ccccc2)C3)c1 (stereo not shown) : inhibition at 1 µM is 99.1

What the record says about CCCCC1CCCc2c(n(Cc3ccnc(OC)c3)c3c(C(=O)O)cccc23)C1 (stereo not shown) : inhibition at 1 µM is 83.4

What the record says about CCCCC1CCCc2c(n(Cc3cccc(OC)c3)c3c(C(=O)O)cccc23)C1 (stereo not shown) : inhibition at 1 µM is 91.7

What the record says about CCCOC1CCCc2c1n(Cc1cccc(C(N)=O)c1)c1c(C(=O)O)cccc21 (stereo not shown) : inhibition at 1 µM is 57.6

What the record says about CCCCCCC1CCCc2c(n(Cc3ccnc(F)c3)c3c(C(=O)O)cccc23)C1 (stereo not shown) : inhibition at 1 µM is 92.8

What the record says about CCCCC1CCCc2c(n(Cc3cccnc3)c3c(C(=O)O)cccc23)C1 (stereo not shown) : inhibition at 1 µM is 71.6

What the record says about CCC1CCc2c1n(Cc1cccc(C#N)c1)c1c(C(=O)O)cccc21 (stereo not shown) : inhibition at 1 µM is 54.8

What the record says about CCCCCC1Cc2c(n(Cc3cccc(C#N)c3)c3c(C(=O)O)cccc23)C1 (stereo not shown) : inhibition at 1 µM is 39.5

What the record says about CCC1CCc2c(c3cccc(C(=O)O)c3n2Cc2cccc(C#N)c2)C1 (stereo not shown) : inhibition at 1 µM is 45.8

What the record says about CCCCCCC1CCc2c(n(Cc3ccccc3C)c3c(C(=O)O)cccc23)C1 (stereo not shown) : inhibition at 1 µM is 87.4

What the record says about CCCCCCC1CCCc2c(n(Cc3cccc(C(=O)O)c3)c3c(C(=O)O)cccc23)C1 (stereo not shown) : inhibition at 1 µM is 89.8

What the record says about NC(=O)c1cccc(Cn2c3c(c4cccc(C(=O)O)c42)CCC(CCc2ccccc2)C3)c1 (stereo not shown) : inhibition at 1 µM is 98.4

What the record says about CCCCCCC1CCCc2c(n(Cc3ccc(C#N)s3)c3c(C(=O)O)cccc23)C1 (stereo not shown) : inhibition at 1 µM is 86.6

What the record says about CCCCCC1CCc2c(n(Cc3cccc(C#N)c3)c3c(C(=O)O)cccc23)C1 (stereo not shown) : inhibition at 1 µM is 60.8

What the record says about CCC1CCc2c(n(Cc3cccc(C(=O)O)c3)c3c(C(=O)O)cccc23)C1 (stereo not shown) : inhibition at 1 µM is 23.5

What the record says about CCC1CCCc2c1c1cccc(C(=O)O)c1n2Cc1cccc(C(N)=O)c1 (stereo not shown) : inhibition at 1 µM is 87
